src = ChEMBL document CHEMBL3045401

- Experiment Notes: Cytotoxicity against HEL assessed as minimum concentration required to cause morphological changes
- Type: cell-based
- Settings: human, HEL cells
# key: entry, value: MCC
Give just the number in µg/mL; leave the unit off.

C/C(=N\NC(=O)COc1cccc2ccccc12)c1ccc(C#N)cc1Br :: 20
O=C(COc1cccc2ccccc12)N/N=C/c1ccccc1O :: 20
COc1ccc(/C=N/NC(=O)COc2cccc3ccccc23)cc1 :: 20
C/C(=N\NC(=O)COc1cccc2ccccc12)c1ccccc1O :: 20

Documented MCC of CCOc1ccc(/C=N/NC(=O)COc2cccc3ccccc23)cc1O : 100

Documented MCC of O=C(COc1cccc2ccccc12)N/N=C/c1cccc(Cl)c1 : 100

Documented MCC of O=C(COc1cccc2ccccc12)N/N=C/c1ccc([N+](=O)[O-])cc1 : 20

Documented MCC of O=C(COc1cccc2ccccc12)N/N=C/c1ccc(F)cc1 : 100

Documented MCC of C/C(=N\NC(=O)COc1cccc2ccccc12)c1ccccc1Br : 20

Documented MCC of O=C(COc1cccc2ccccc12)N/N=C/c1cccc(Br)c1 : 100
